Values were extracted from patent US20260242735A1.

- Measured on: human CD33 variant Y50D (human, UniProt P20138 18-364)
- Sequence (P20138 18-364 Y50D limits assumed): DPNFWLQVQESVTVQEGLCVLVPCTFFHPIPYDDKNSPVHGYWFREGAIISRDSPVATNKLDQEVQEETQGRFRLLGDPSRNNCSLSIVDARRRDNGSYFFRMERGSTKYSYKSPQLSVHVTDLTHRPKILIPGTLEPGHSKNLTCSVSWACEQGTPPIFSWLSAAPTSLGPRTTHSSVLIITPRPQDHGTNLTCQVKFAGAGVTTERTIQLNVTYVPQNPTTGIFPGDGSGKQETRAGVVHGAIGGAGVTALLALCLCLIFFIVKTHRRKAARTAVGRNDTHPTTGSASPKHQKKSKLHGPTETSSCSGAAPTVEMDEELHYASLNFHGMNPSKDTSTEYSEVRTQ
- Assay comment: flow cytometry, IgG on cells expressing the mutant

- Binder: "Refmab #3 (antibody, human IgG1, V domains shown, Tested in IgG format; human IgG1 Fc silent (PG-LALA)) VH: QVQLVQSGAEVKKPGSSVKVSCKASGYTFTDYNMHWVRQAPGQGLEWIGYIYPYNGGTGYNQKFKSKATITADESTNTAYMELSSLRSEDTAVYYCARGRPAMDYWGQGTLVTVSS VL: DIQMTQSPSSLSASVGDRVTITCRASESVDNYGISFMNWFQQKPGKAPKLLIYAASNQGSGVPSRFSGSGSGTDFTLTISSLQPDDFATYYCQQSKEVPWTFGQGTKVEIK"
  Mean % WT Binding: "100 % of WT"
